Target Entity: Nitric oxide synthase, inducible (Homo sapiens)
Sequence (P35228 whole entry): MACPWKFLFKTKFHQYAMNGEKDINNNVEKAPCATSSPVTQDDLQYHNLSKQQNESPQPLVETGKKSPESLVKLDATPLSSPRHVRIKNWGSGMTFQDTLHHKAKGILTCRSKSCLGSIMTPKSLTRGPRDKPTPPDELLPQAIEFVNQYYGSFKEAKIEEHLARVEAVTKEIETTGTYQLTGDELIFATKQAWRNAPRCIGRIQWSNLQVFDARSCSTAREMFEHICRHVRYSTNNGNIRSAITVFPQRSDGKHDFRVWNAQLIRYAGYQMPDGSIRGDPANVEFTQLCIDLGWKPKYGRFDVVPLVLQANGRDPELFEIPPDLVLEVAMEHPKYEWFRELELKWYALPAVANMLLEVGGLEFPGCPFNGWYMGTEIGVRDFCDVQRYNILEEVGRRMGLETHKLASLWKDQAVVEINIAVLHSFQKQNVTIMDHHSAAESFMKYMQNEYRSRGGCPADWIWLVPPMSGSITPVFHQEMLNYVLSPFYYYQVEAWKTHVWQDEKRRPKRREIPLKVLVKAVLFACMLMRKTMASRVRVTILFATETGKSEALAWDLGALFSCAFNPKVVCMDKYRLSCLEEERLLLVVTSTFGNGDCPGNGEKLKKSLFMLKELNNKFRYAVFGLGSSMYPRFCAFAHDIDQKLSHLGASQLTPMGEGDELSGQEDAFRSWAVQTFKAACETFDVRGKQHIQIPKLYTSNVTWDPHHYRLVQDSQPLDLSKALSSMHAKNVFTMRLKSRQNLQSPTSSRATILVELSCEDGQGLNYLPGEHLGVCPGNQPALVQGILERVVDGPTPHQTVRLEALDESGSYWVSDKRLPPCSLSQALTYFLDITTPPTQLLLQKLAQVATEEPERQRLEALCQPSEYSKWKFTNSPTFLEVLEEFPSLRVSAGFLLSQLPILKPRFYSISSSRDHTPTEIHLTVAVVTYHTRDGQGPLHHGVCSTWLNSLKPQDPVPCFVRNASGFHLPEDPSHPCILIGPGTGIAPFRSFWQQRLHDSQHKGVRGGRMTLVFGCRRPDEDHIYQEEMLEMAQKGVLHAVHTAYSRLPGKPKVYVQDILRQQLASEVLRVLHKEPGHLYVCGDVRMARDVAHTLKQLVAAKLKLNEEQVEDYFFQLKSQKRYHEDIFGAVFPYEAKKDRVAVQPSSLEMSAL
Assay Procedure: Concentration required to inhibit human Inducible nitric oxide synthase over expressed in A549 cells
Assay type: cell-based
Observation Type: IC50 (nM)
Number in nM, nothing else.

Answer with the recorded IC50 of CCCC1CC(C)=CC(N)=N1 (centres undefined) only.
60

Report IC50, nothing else, for this molecule: `CC1=CC(N)=NCC1(C)C`
420

Retrieve IC50 measured for `CC1(C)C=CC(N)=NC1` and print it.
2800

Look up and state reported IC50 for `CC1=CC(N)=N[C@@H]2CCCC[C@H]12`
1400

Give the measured IC50 for `CC1=CCN=C(N)C1`
700

Supply measured IC50 of `CCC1=CC(=N)NCC1` in your reply.
1200

Give IC50 for the following molecule: `CC1=CC(N)=N[C@@H]2CCC[C@H]12`
170

Indicate its recorded IC50; the molecule in question is `CC1=C(C)C(N)=NCC1`
310

Please supply the value of reported IC50 for the item `CC1=CC(N)=NCC1`
200

* * *

Consider the following molecules; for each one, report its Ratio.
Target Entity: Nitric oxide synthase (inducible and endothelial) (Homo sapiens) (UniProt P35228+P29474)
Assay Procedure: Selectivity was evaluated as the rate of the IC50 values for heNOS and hiNOS.
Assay type: protein assay
// no unit string in output, number only

Fill in Ratio for record CCCC1CC(C)=CC(N)=N1 (stereo not given)
9.7

Report measured Ratio; entry is `CC1=C(C)C(N)=NCC1`
1

# return recorded Ratio for input `CC1=CCN=C(N)C1`
0.6

Give the reported value of Ratio for this record: C=CCC1CC(C)=CC(N)=N1 (stereo not given)
7.2

Supply Ratio value. Item: `CC1=CC(N)=N[C@@H]2CCCC[C@H]12`
5.3

Tell me its Ratio given `CC1=CC(N)=NCC1(C)C` as the entry.
5

State its Ratio: `CC1=CC(N)=NCC1`
1.2

Specify reported Ratio for the molecule shown: `CC1=CC(N)=N[C@@H]2CCC[C@H]12`
3

Tell me Ratio reported for `CC1(C)C=CC(N)=NC1`
11.1

Report Ratio, nothing else, for this molecule: `CCC1=CC(=N)NCC1`
1.3
